# Read-out: Alkaline Phosphatase, Placental (ALPP) gene, ALPP (gene 250)
# Test Protocol: LTEA_HepaRG_ALPP: Life Technologies and Expression Analysis (LTEA) Assay for Alkaline Phosphatase, Placental (ALPP) gene using HepaRG (AID 2283468);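 as to AC50: differentiated human HepaRG liver cells in serum-free induction medium; ALPP transcript by TaqMan qRT-PCR normalized to ACTB GAPDH and POLR2A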
# Measurement Setup: mRNA level, 48 h; actives raise or lower the signal
Active and inactive are the calls of the source. The calls were made as follows: active = hit-call score of the fitted dose curve at least 0.9, where 1 is the maximum; inactive = score below 0.9.
Outcome Measure: AC50

Observe how each entry below is paired with its result.
>>> reported("c1nc[nH]n1")
"0.109 µM (active)"
>>> reported("Cc1ccc(O)cc1C")
"inactive"
>>> reported("CCCCc1ccccc1")
"inactive"
>>> reported("CN(C)C(=O)Cl")
"inactive"
>>> reported("CCCN(CCC)c1c([N+](=O)[O-])cc(C(C)C)cc1[N+](=O)[O-]")
"inactive"
>>> reported("CC(Cl)(Cl)C(=O)O")
"inactive"
>>> reported("CCC(C)(C)c1ccc(O)cc1")
"inactive"
>>> reported("CCOP(=S)(Oc1ccc([N+](=O)[O-])cc1)c1ccccc1 (stereo unspecified)")
"50 µM (active)"
>>> reported("CCOC(=O)c1ccccc1C(=O)OCC")
"inactive"
>>> reported("CCOS(=O)(=O)OCC")
"inactive"

Lookup: Quick one: AC50 for CCC1(c2ccccc2)C(=O)N=C(O)NC1=O (stereo unspecified) ?
Found: inactive

====

# Read-out: Actin alpha 1 (ACTA1), ACTA1 (gene 58)
# Test Protocol: BSK_MyoF_ACTA1: BioMAP Diversity Plus: MyoF Assay for Actin alpha 1 (ACTA1) Biomarker Activity (AID 2284244)
# Measurement Setup: primary human lung fibroblasts
Calls of active or inactive are those of the source. How the source made its calls: active means hit-call score of the fitted dose curve at least 0.9, where 1 is the maximum; inactive means score below 0.9.
Bench note: report the call from true = active, false = inactive

Solved entries:
>>> category_label("CC(O)C(F)(F)C(F)(F)F (stereo not given)")
"false"
>>> category_label("N#Cc1c(-c2ccc(Cl)cc2)[nH]c(C(F)(F)F)c1Br")
"true"
>>> category_label("O=C(O)C=CC(F)(C(F)(F)F)C(F)(F)F")
"false"
>>> category_label("CC(C)(C)c1ccccc1OP(=O)(Oc1ccccc1)Oc1ccccc1")
"true"
>>> category_label("COP(N)(=S)OC")
"false"
>>> category_label("CCOP(=S)(S)OCC")
"false"
>>> category_label("O=P(OCC(Br)CBr)(OCC(Br)CBr)OCC(Br)CBr (stereo not given)")
"false"
>>> category_label("O=S1(=O)OCC2C(CO1)C1(Cl)C(Cl)=C(Cl)C2(Cl)C1(Cl)Cl (stereo not given)")
"false"
>>> category_label("NC(=O)C(F)(F)C(F)(F)F")
"false"
>>> category_label("O=C(O)C(F)(F)OC(F)(F)C(F)(F)OC(F)(F)C(=O)O")
"false"

Lookup: So what was the verdict on `CC(C)Nc1ccc(Nc2ccccc2)cc1` in this test?
Found: true

Lookup: Returns: the outcome recorded for CC(Cl)CN(C)C (stereo not given) in this assay.
Found: false

====

# Read-out: Vascular cell adhesion molecule 1 (VCAM1), VCAM1 (gene 7412)
# Test Protocol: BSK_LPS_VCAM1: BioMAP Diversity Plus: LPS Assay for Vascular cell adhesion molecule 1 (VCAM1) Biomarker Activity (AID 2283086)
# Measurement Setup: primary human HUVEC with PBMC; actives raise or lower the signal
Active and inactive are the calls of the source. How the source made its calls: active means hit-call score of the fitted dose curve at least 0.9, where 1 is the maximum; inactive means score below 0.9.
Pick one: active, inactive

Solved cases below.
>>> category_label("CC(C)(C)OOC(C)(C)C")
"inactive"
>>> category_label("Cc1ccc(O)cc1C")
"inactive"
>>> category_label("ClC(Cl)=C(c1ccc(Cl)cc1)c1ccccc1Cl")
"active"
>>> category_label("c1cc2c3c(cccc3c1)CC2")
"inactive"

Lookup: What did the test return for CCOP(=S)(NC(C)C)Oc1ccccc1C(=O)OC(C)C (stereo not given) ?
Found: inactive

Lookup: Assay outcome for O=P(OCC(Br)CBr)(OCC(Br)CBr)OCC(Br)CBr (stereo not given) : what was it?
Found: inactive

Lookup: Give the logged outcome of this assay for the following molecule: `CCCCc1ccccc1`
Found: inactive

Lookup: Dear colleague, could you share the recorded outcome for CC(O)C(F)(F)C(F)(F)F (stereo not given) when you have a moment?
Found: inactive

Lookup: Test call, this molecule: `CC(C)Nc1ccc(Nc2ccccc2)cc1`
Found: active

Lookup: # fetch the recorded call for `Cc1ccc([N+](=O)[O-])cc1C` here
Found: inactive

====

# Read-out: Human Leukocyte Antigen - DR isotype (HLADR), HLA-DRA (gene 3122)
# Test Protocol: BSK_CASM3C_HLADR: BioMAP Diversity Plus: CASM3C Assay for Human Leukocyte Antigen - DR isotype (HLADR) Biomarker Activity (AID 2283043);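 also: cell-surface HLA-DR protein level quantified by ELISA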
# Measurement Setup: primary human coronary artery smooth muscle cells; actives raise or lower the signal
Activity calls are given as the source filed them. The calls were made as follows: active = hit-call score of the fitted dose curve at least 0.9, where 1 is the maximum; inactive = score below 0.9.
Just give me one of these, please: active, inactive

>>> category_label("c1ccc(OP(Oc2ccccc2)Oc2ccccc2)cc1")
"inactive"
>>> category_label("CC(C)Nc1ccc(Nc2ccccc2)cc1")
"active"

Lookup: Can you look up the reported call for `Nc1cc2c3c(c1)C(c1ccccc1)=N[C@@H](NC(=O)c1cccnc1)C(=O)N3CC2` for me?
Found: inactive

Lookup: State the result this test recorded for `O=C(O)C=CC(F)(C(F)(F)F)C(F)(F)F` .
Found: inactive

Lookup: How did this test come out for CCCCC(CC)COP(=O)(Oc1ccccc1)Oc1ccccc1 (configuration not stated) ?
Found: inactive

Lookup: Test call for this compound, please: CC(Cl)CN(C)C (configuration not stated)
Found: inactive

Lookup: Assay result, entry `O=[N+]([O-])c1ccc(Cl)c(Cl)c1` — outcome?
Found: inactive

====

# Read-out: Low-density lipoprotein receptor (LDLR), LDLR (gene 3949)
# Test Protocol: BSK_CASM3C_LDLR: BioMAP Diversity Plus: CASM3C Assay for Low-density lipoprotein receptor (LDLR) Biomarker Activity (AID 2283045);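 also: LDLR protein level on the cell surface quantified by ELISA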
# Measurement Setup: primary human coronary artery smooth muscle cells; actives raise or lower the signal
Activity calls are given as the source filed them. Rule for the calls: active = hit-call score of the fitted dose curve at least 0.9, where 1 is the maximum; inactive = score below 0.9.
Response enum: label 1 = active, label 0 = inactive

>>> category_label("CC(Cl)CN(C)C (centres undefined)")
"label 0"
>>> category_label("CCCCN(CCCC)SN(C)C(=O)Oc1cccc2c1OC(C)(C)C2")
"label 1"
>>> category_label("OCC(F)(F)OC(F)(F)C(F)(F)OC(F)(F)C(F)(F)OC(F)(F)CO")
"label 0"

Next item in the queue.
Lookup: Please share the test call associated with `O=[N+]([O-])c1ccc(Cl)c(Cl)c1` .
Found: label 0

====

# Read-out: matrix metalloproteinase-3 (MMP3), MMP3 (gene 4314)
# Test Protocol: LTEA_HepaRG_MMP3: Life Technologies and Expression Analysis (LTEA) Assay for matrix metalloproteinase-3 (MMP3) using HepaRG (AID 2283519)
# Measurement Setup: mRNA level, 48 h; actives raise or lower the signal
Active and inactive are the calls of the source. How the source made its calls: active means hit-call score of the fitted dose curve at least 0.9, where 1 is the maximum; inactive means score below 0.9.
Respond with a class label; see active, inactive

Some solved cases for reference:
>>> category_label("CCCCN(CCCC)SN(C)C(=O)Oc1cccc2c1OC(C)(C)C2")
"inactive"
>>> category_label("OCC1CO1 (stereo not drawn)")
"inactive"
>>> category_label("Cc1ccc(N)cc1N")
"inactive"
>>> category_label("ClC1=C(Cl)C2(Cl)C3C(Cl)C(Cl)CC3C1(Cl)C2(Cl)Cl (stereo not drawn)")
"active"
>>> category_label("c1ccc2c(c1)Nc1ccccc1S2")
"inactive"

Now consider the entry below.
Lookup: Per the assay record, what outcome was assigned to `CCCN(CCC)c1c([N+](=O)[O-])cc(C(C)C)cc1[N+](=O)[O-]` ?
Found: inactive

====

# Test Protocol: Tanguay_ZF_120hpf_SOMI_legacy: (Legacy) Oregon State University Tanguay Lab 120 Hour Post-fertilization zebrafish Assay for Somite Malformation (AID 2283647)
Inconclusive results are not listed. The source made the active and inactive calls. How the source made its calls: active means hit-call score of the fitted dose curve at least 0.9, where 1 is the maximum; inconclusive means response in the unintended direction; inactive means score below 0.9.
Parameter call: string, one of active, inactive

>>> category_label("CCN(CC)c1ccccc1")
"inactive"
>>> category_label("c1cc2c3c(cccc3c1)CC2")
"inactive"
>>> category_label("CCCCN(CCCC)SN(C)C(=O)Oc1cccc2c1OC(C)(C)C2")
"inactive"
>>> category_label("OCC1CO1 (centres undefined)")
"inactive"

Turning now to a further record.
Lookup: Tell me the assay call for `CC(Cl)(Cl)C(=O)O` please.
Found: inactive

====

# Test Protocol: Tanguay_ZF_120hpf_PIG_legacy: (Legacy) Oregon State University Tanguay Lab 120 Hour Post-fertilization zebrafish Assay for Pigmentation Malformation (AID 2283650);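 also: dechorionated Tropical 5D zebrafish embryos exposed singly from 6 to 120 hpf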
Records with an inconclusive call do not appear. Calls of active or inactive are those of the source. Rule for the calls: active = hit-call score of the fitted dose curve at least 0.9, where 1 is the maximum; inconclusive = response in the unintended direction; inactive = score below 0.9.
Pick one and only one: yes = active, no = inactive

>>> category_label("O=[N+]([O-])c1ccc(Cl)c(Cl)c1")
"no"
>>> category_label("COCCOCCO")
"no"
>>> category_label("CCOP(=S)(OCC)SCSCC")
"no"

Let's switch to this compound now.
Lookup: Recorded test outcome, item `Nc1ccc(Cl)cc1`
Found: no
